Data origin: ChEMBL document CHEMBL4346738

Could you please report measured IC50 for the items listed next?
# Target: UniProtKB Q7ZJM1
# Sequence (Q7ZJM1 whole entry): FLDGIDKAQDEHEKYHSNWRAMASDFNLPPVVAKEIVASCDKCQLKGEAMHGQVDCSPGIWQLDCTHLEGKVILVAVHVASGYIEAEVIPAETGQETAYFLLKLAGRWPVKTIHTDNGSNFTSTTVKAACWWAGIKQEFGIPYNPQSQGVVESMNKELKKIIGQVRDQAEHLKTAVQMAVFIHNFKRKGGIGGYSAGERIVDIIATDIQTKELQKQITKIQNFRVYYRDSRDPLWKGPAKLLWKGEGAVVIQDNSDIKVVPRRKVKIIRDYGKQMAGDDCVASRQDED
# Protocol: Inhibition of recombinant HIV1 integrase strand transfer activity using biotin-labeled double-stranded HIV1 LTR U5 donor DNA substrate pretreated for 5 mins followed by substrate addition and measured after 30 mins by ELISA

CC(C)Oc1ccc2cccnc2c1-c1cccc2ccccc12 : > 100 µM

We next turn to a different compound, shown below.
Please look up its IC50: "CC(C)Oc1ccc2cccnc2c1-c1cccc2cccnc12"
> 100 µM

---

# Protocol: Selectivity index, ratio of CC50 for human TZM-bl cells to IC50 for antiviral activity against HIV1 HXB2 pseudovirus infected in human TZM-bl cells
# Assay type: toxicity, cell-based
# Recorded Conditions: read-out: Ratio CC50/IC50
Readout Kind: selectivity ratio
Give bare numbers.

Which selectivity ratio value belongs to "CCN(CC)C(=O)Oc1ccc2ccccc2c1-c1cccc2cccnc12" ?
5.5
